Record form. Attribute: Relative activity (%). Fill in for each entry.
targetEntity: T1, CD8α Fc fusion protein (UniProt P01732 22-182, limits assumed)
T1 construct: Used as the coating antigen of the ELISAs; also called CD8α antigen; CD8α protein; not shown: Fc part
T1 sequence (P01732 22-182 limits assumed): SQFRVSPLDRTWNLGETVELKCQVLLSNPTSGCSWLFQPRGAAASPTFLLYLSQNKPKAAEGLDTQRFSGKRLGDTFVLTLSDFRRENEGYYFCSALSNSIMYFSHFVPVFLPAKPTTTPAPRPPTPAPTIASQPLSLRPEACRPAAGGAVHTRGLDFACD
experiment: affinity detection of humanized variants (method not restated; taken as the CD8α Fc ELISA of section 1.2); relative to C37-F1
One number for each entry, in %.

C37-H4 (humanized variant of C37-F1) (VHH) VHH: QVQLVESGGGLVQPGGSLRLSCAASGLTFSDYAIGWFRQAPGKEREGISCIRIYDGNTYYADSVKGRFTISRDNSKNHVYLQMNSLKPEDTAVYYCAAGSYYSCSVYPAYDLDYWGKGTLVTVSS :: 141
C37H (humanized variant of C37-F1) (VHH) VHH: QVQLVESGGGLVQPGGSLRLSCAASGLTFSDYAIGWFRQAPGKEREGISCIRIYDGNTYYADSVKGRFTISRDNSKNHVYLQMNSLRAEDTAVYYCAAGSYYSCSVYPAYDLDYWGKGTLVTVSS :: 151
C37-H1 (humanized variant of C37-F1) (VHH) VHH: QVQLVESGGGLVQPGGSLRLSCAASGLTFSDYAIGWFRQAPGKEREGISCIRIYDGRTYYADSVKGRFTISRDNSKNHVYLQMNSLRAEDTAVYYCAAGSYYSCSVYPAYDLDYWGQGTLVTVSS :: 110
C37-H3 (humanized variant of C37-F1) (VHH) VHH: QVQLVESGGGLVQPGGSLRLSCAASGLTFSDYAIGWFRQAPGKEREGISCIRIYDGNTYYADSVKGRFTISRDNAKNHVYLQMNSLRAEDTAVYYCAAGSYYSCSVYPAYDLDYWGKGTLVTVSS :: 171

Query C37-H2 (humanized variant of C37-F1) (VHH) VHH: QVQLVESGGGLVQPGGSLRLSCAASGLTFSDYAIGWFRQAPGKEREGISCIRIYDRNTYYADSVKGRFTISRDNSKNHVYLQMNSLRAEDTAVYYCAAGSYYSCSVYPAYDLDYWGQGTLVTVSS yields Relative activity (%) of 122

Data origin, for the record: patent US20240327517A1
